- experimental-system: DLG1_3, Q12959
- Sequence (Q12959 457-571): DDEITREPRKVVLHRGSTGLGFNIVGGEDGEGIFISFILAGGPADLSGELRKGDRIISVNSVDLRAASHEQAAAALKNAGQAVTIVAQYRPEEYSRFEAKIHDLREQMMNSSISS
- method-description: holdup assay
- Parameters: key: below the threshold = too weak to quantify, mostly under pKd 3.1 to 4
- condition-info: plain residues with an end cap or a label only (N-terminal biotin on a linker: ado-ado)
assay-metric: pKd

binder | result
PKRSFIESNV [TANC1, Q9C0D5] | 4.32
IKAIVDLTGL [TRAF2, Q12933] | below the threshold
TACCHSETVV [TGFA, P01135] | 3.97
GQEEQVTTRL [TRPC5, Q9UL62] | below the threshold

Answer with reported pKd of LPHGHSTTRV [NLGN4X, Q8N0W4]
4.24

Answer with reported pKd of EKKTLIGIKL [GOT1L1, Q8NHS2]
below the threshold

Answer with reported pKd of VNKSKLLTDV [KCNA1, Q09470]
below the threshold

Answer with reported pKd of LGRSTPQSEV [DGKH, Q86XP1]
below the threshold

Answer with reported pKd of TLPRKRMSSI [GPRC6A, Q5T6X5]
below the threshold

Answer with reported pKd of GNSVLKSTQF [SLC22A12, Q96S37]
below the threshold
